Tested on: Pseudomonas aeruginosa P1021903
Format: cell-based
CONDITION_DETAILS: P1021903
Non-standard residues stand in square brackets, D forms with d. Residues, ends and D or L forms follow the SMILES beside them. Cit = NC(=O)NCCC[C@H](N)C(=O)O; Chg = N[C@H](C(=O)O)C1CCCCC1; dDab = NCC[C@@H](N)C(=O)O; Orn = NCCC[C@H](N)C(=O)O; Dab = NCC[C@H](N)C(=O)O
Flag rule - MIC P. aeruginosa P1021903 less than 0.09 µg/mL flags Fulfilled; the remaining entries get Not fulfilled.

# check: MIC P. aeruginosa P1021903 < 0.09 µg/mL for C[C@@H]1NC(=O)[C@H](CCN)NC(=O)[C@H](CCN)NC(=O)[C@H](Cc2c[nH]c3ccccc23)NC(=O)[C@H](CCN)NC(=O)[C@H](CCN)NC(=O)[C@H](CCCCN)NC(=O)[C@H](CCN)NC(=O)[C@H](C2CCCCC2)NC(=O)[C@H](Cc2c[nH]c3ccccc23)NC(=O)[C@H]([C@@H](C)O)NC(=O)[C@@H]2CCCN2C(=O)[C@H]2CCCN2C(=O)[C@H](CCN)NC1=O [Example 33] (cyclo(TW[Chg][Dab]K[Dab][Dab]W[Dab][Dab]A[Dab][dP]P)) Not fulfilled

# check: MIC P. aeruginosa P1021903 < 0.09 µg/mL for CC[C@H](C)[C@@H]1NC(=O)[C@H](Cc2ccc(O)cc2)NC(=O)[C@H]([C@@H](C)O)NC(=O)[C@@H]2CCCN2C(=O)[C@H]2CCCN2C(=O)[C@H](CCN)NC(=O)[C@H](C)NC(=O)[C@H](CCN)NC(=O)[C@H](CCN)NC(=O)[C@H](Cc2c[nH]c3ccccc23)NC(=O)[C@H](CCN)NC(=O)[C@H](CCN)NC(=O)[C@H](CCCCN)NC(=O)[C@H](CCN)NC1=O [Example 19] (cyclo(TYI[Dab]K[Dab][Dab]W[Dab][Dab]A[Dab][dP]P)) Fulfilled

# check: MIC P. aeruginosa P1021903 < 0.09 µg/mL for CC[C@H](C)[C@@H]1NC(=O)[C@H](Cc2c[nH]c3ccccc23)NC(=O)[C@H]([C@@H](C)O)NC(=O)[C@@H]2CCCN2C(=O)[C@H]2CCCN2C(=O)[C@H](CCN)NC(=O)[C@H](C)NC(=O)[C@H](CCN)NC(=O)[C@H](CCN)NC(=O)[C@H](Cc2c[nH]c3ccccc23)NC(=O)[C@H](CCN)NC(=O)[C@H](CCCCN)NC(=O)[C@H](CCCCN)NC(=O)[C@H](CCN)NC1=O [Example 25] (cyclo(TWI[Dab]KK[Dab]W[Dab][Dab]A[Dab][dP]P)) Fulfilled

# check: MIC P. aeruginosa P1021903 < 0.09 µg/mL for CC[C@H](C)[C@@H]1NC(=O)[C@H](Cc2ccc(O)cc2)NC(=O)[C@H](CC(=O)O)NC(=O)[C@@H]2CCCN2C(=O)[C@H]2CCCN2C(=O)[C@H](CCN)NC(=O)[C@H](C)NC(=O)[C@H](CCN)NC(=O)[C@H](CCN)NC(=O)[C@H](Cc2c[nH]c3ccccc23)NC(=O)[C@H](CCN)NC(=O)[C@@H](CCN)NC(=O)[C@H](CCCN)NC(=O)[C@H](CCN)NC1=O [Example 43] (cyclo(DYI[Dab][Orn][dDab][Dab]W[Dab][Dab]A[Dab][dP]P)) Not fulfilled

# check: MIC P. aeruginosa P1021903 < 0.09 µg/mL for CC[C@H](C)[C@@H]1NC(=O)[C@H](Cc2c[nH]c3ccccc23)NC(=O)[C@H]([C@@H](C)O)NC(=O)[C@@H]2CCCN2C(=O)[C@H]2CCCN2C(=O)[C@H](CCN)NC(=O)[C@H](C)NC(=O)[C@H](CCN)NC(=O)[C@H](CCN)NC(=O)[C@H](Cc2c[nH]c3ccccc23)NC(=O)[C@H](CCC(N)=O)NC(=O)[C@H](CCN)NC(=O)[C@H](CCCCN)NC(=O)[C@H](CCN)NC1=O [Example 39] (cyclo(TWI[Dab]K[Dab]QW[Dab][Dab]A[Dab][dP]P)) Not fulfilled

# check: MIC P. aeruginosa P1021903 < 0.09 µg/mL for CC[C@H](C)[C@@H]1NC(=O)[C@H](Cc2c[nH]c3ccccc23)NC(=O)[C@H]([C@@H](C)O)NC(=O)[C@@H]2CCCN2C(=O)[C@H]2CCCN2C(=O)[C@H](CO)NC(=O)[C@H](C)NC(=O)[C@H](CCN)NC(=O)[C@H](CCN)NC(=O)[C@H](Cc2c[nH]c3ccccc23)NC(=O)[C@H](CCN)NC(=O)[C@@H](CCN)NC(=O)[C@H](CCCN)NC(=O)[C@H](CCN)NC1=O [Example 49] (cyclo(TWI[Dab][Orn][dDab][Dab]W[Dab][Dab]AS[dP]P)) Fulfilled

# check: MIC P. aeruginosa P1021903 < 0.09 µg/mL for CC[C@H](C)[C@@H]1NC(=O)[C@H](Cc2ccc(O)cc2)NC(=O)[C@H](CC(=O)O)NC(=O)[C@@H]2CCCN2C(=O)[C@H]2CCCN2C(=O)[C@H](CCN)NC(=O)[C@H](C)NC(=O)[C@H](CCN)NC(=O)[C@H](CCN)NC(=O)[C@H](Cc2c[nH]c3ccccc23)NC(=O)[C@H](CCN)NC(=O)[C@@H](CCN)NC(=O)[C@H](CCCCN)NC(=O)[C@H](CCN)NC1=O [Example 42] (cyclo(DYI[Dab]K[dDab][Dab]W[Dab][Dab]A[Dab][dP]P)) Not fulfilled

# check: MIC P. aeruginosa P1021903 < 0.09 µg/mL for CC[C@H](C)[C@@H]1NC(=O)[C@H](Cc2c[nH]c3ccccc23)NC(=O)[C@H](CCCNC(N)=O)NC(=O)[C@@H]2CCCN2C(=O)[C@H]2CCCN2C(=O)[C@H](CCN)NC(=O)[C@H](C)NC(=O)[C@H](CCN)NC(=O)[C@H](CCN)NC(=O)[C@H](Cc2c[nH]c3ccccc23)NC(=O)[C@H](CCN)NC(=O)[C@H](CCN)NC(=O)[C@H](CCCCN)NC(=O)[C@H](CCN)NC1=O [Example 18] (cyclo([Cit]WI[Dab]K[Dab][Dab]W[Dab][Dab]A[Dab][dP]P)) Not fulfilled
